Consider the following compounds and their measured relative viability readings.
- Tested on: HCC-44
- protocol.details: relative viability (nuclei count vs DMSO), 5 days (fraction); higher = more cells survive
- condition.description: first compound 0.1581 µM

{"columns": ["compound", "relative viability"],
 "data": [
  ["COc1cc2nccc(Oc3ccc(NC(=O)Nc4cc(C)on4)c(Cl)c3)c2cc1OC [Tivozanib] + COc1cccc2cc(-c3nc([C@H]4CC[C@H](C(=O)O)CC4)n4ncnc(N)c34)[nH]c12 [OSI-027] (partner 0.5 µM)", 0.41],
  ["Nc1ccn([C@@H]2O[C@H](CO)[C@@H](O)[C@@H]2O)c(=O)n1 [Cytarabine] + CC1(C)CCC(c2ccc(Cl)cc2)=C(CN2CCN(c3ccc(C(=O)NS(=O)(=O)c4ccc(N[C@H](CCN5CCOCC5)CSc5ccccc5)c(S(=O)(=O)C(F)(F)F)c4)cc3)CC2)C1 [Navitoclax] (partner 0.5 µM)", 0.563],
  ["Nc1ccn([C@@H]2O[C@H](CO)[C@@H](O)[C@@H]2O)c(=O)n1 [Cytarabine] + CS(=O)(=O)N1CCN(Cc2cc3nc(-c4cccc5[nH]ncc45)nc(N4CCOCC4)c3s2)CC1 [Pictilisib] (partner 1 µM)", 0.349],
  ["COc1cc2nccc(Oc3ccc(NC(=O)Nc4cc(C)on4)c(Cl)c3)c2cc1OC [Tivozanib] + NC(=O)Nc1cc(-c2cccc(F)c2)sc1C(=O)N[C@H]1CCCNC1 [AZD7762] (partner 0.2 µM)", 1.09]
]}

----------
- System: A-427
- protocol.details: relative viability (nuclei count vs DMSO), 5 days (fraction); higher = more cells survive
- condition.description: first compound 0.5 µM

{"columns": ["compound", "relative viability"],
 "data": [
  ["COc1cc2nccc(Oc3ccc(NC(=O)Nc4cc(C)on4)c(Cl)c3)c2cc1OC [Tivozanib] + N=C(N)NC(=N)NCCc1ccccc1 [Phenformin] (partner 250 µM)", 0.241],
  ["Nc1ccn([C@@H]2O[C@H](CO)[C@@H](O)[C@@H]2O)c(=O)n1 [Cytarabine] + COc1cc2c(Oc3ccc(NC(=O)C4(C(=O)Nc5ccc(F)cc5)CC4)cc3F)ccnc2cc1OCCCN1CCOCC1 [Foretinib] (partner 0.25 µM)", 0.176],
  ["Nc1ccn([C@@H]2O[C@H](CO)[C@@H](O)[C@@H]2O)c(=O)n1 [Cytarabine] + CS(=O)(=O)N1CCN(Cc2cc3nc(-c4cccc5[nH]ncc45)nc(N4CCOCC4)c3s2)CC1 [Pictilisib] (partner 1 µM)", 0.147],
  ["COc1cc2nccc(Oc3ccc(NC(=O)Nc4cc(C)on4)c(Cl)c3)c2cc1OC [Tivozanib] + Nc1ncn([C@H]2C[C@H](O)[C@@H](CO)O2)c(=O)n1 [Decitabine] (partner 2 µM)", 0.543],
  ["COc1cc2nccc(Oc3ccc(NC(=O)Nc4cc(C)on4)c(Cl)c3)c2cc1OC [Tivozanib] + CS(=O)(=O)CCNCc1ccc(-c2ccc3ncnc(Nc4ccc(OCc5cccc(F)c5)c(Cl)c4)c3c2)o1 [Lapatinib] (partner 2 µM)", 1.06],
  ["Nc1ccn([C@@H]2O[C@H](CO)[C@@H](O)[C@@H]2O)c(=O)n1 [Cytarabine] + O=C(CCCCCCC(=O)Nc1ccccc1)NO [Vorinostat] (partner 1 µM)", 0.306],
  ["Nc1ccn([C@@H]2O[C@H](CO)[C@@H](O)[C@@H]2O)c(=O)n1 [Cytarabine] + CC(C)C[C@H](NC(=O)[C@H](Cc1ccccc1)NC(=O)c1cnccn1)B(O)O [Bortezomib] (partner 0.002 µM)", 0.166],
  ["COc1cc2nccc(Oc3ccc(NC(=O)Nc4cc(C)on4)c(Cl)c3)c2cc1OC [Tivozanib] + Cc1nc(NC(=O)N2CCC[C@H]2C(N)=O)sc1-c1ccnc(C(C)(C)C(F)(F)F)c1 [Alpelisib] (partner 2 µM)", 1.06],
  ["Nc1ccn([C@@H]2O[C@H](CO)[C@@H](O)[C@@H]2O)c(=O)n1 [Cytarabine] + C[C@]1(O)C[C@@H](c2nc(-c3ccc4ccc(-c5ccccc5)nc4c3)c3c(N)nccn32)C1 [Linsitinib] (partner 1 µM)", 0.196],
  ["COc1cc2nccc(Oc3ccc(NC(=O)Nc4cc(C)on4)c(Cl)c3)c2cc1OC [Tivozanib] + NC(=O)Nc1cc(-c2cccc(F)c2)sc1C(=O)N[C@H]1CCCNC1 [AZD7762] (partner 0.2 µM)", 0.719],
  ["COc1cc2nccc(Oc3ccc(NC(=O)Nc4cc(C)on4)c(Cl)c3)c2cc1OC [Tivozanib] + C[C@@H](Oc1cc(-c2cnn(C3CCNCC3)c2)cnc1N)c1c(Cl)ccc(F)c1Cl [Crizotinib] (partner 1 µM)", 0.827],
  ["Nc1ccn([C@@H]2O[C@H](CO)[C@@H](O)[C@@H]2O)c(=O)n1 [Cytarabine] + CC(=O)Nc1cccc(-n2c(=O)n(C3CC3)c(=O)c3c(Nc4ccc(I)cc4F)n(C)c(=O)c(C)c32)c1 [Trametinib] (partner 0.02 µM)", 0.225]
]}

# credit: the supplement of paper PMC10307832
